Would you kindly list Alkaline phosphatase detection limit (at 2× background) for each of these compounds?
- MEASURED ON: alkaline phosphatase (Bos taurus)
- TEST NAME: Alkaline phosphatase detection limits, Wilj microtiter plate luminometer (Example XXVI)
- Type: biochemical
- ASSAY SETUP: SAPPHIRE II, 23 MINUTE INCUBATION
Kindly answer with a numeric value in pM, unit omitted.

The reported value for COC1(c2cccc(OP(=O)(O)O)c2)OOC12C1CC3CC2CC(O)(C3)C1 (single isomer, unassigned) in terms of Alkaline phosphatase detection limit (at 2× background) is 0.0014

Given item COC1(c2cccc(OP(=O)(O)O)c2)OOC12C1CC3CC(C1)CC2C3 (stereo not shown) [AMPPD, reference compound] , the value recorded as its Alkaline phosphatase detection limit (at 2× background) is 0.0013

The recorded Alkaline phosphatase detection limit (at 2× background) for entry COC1(c2cccc(OP(=O)(O)O)c2)OOC12C1CC3CC2CC(Cl)(C3)C1 (stereo not shown) equals 0.00021

Query COC1(c2cccc(OP(=O)(O)O)c2)OOC12C1CC3CC2CC(Br)(C3)C1 (stereo not shown) yields Alkaline phosphatase detection limit (at 2× background) of 0.00074

---

- MEASURED ON: alkaline phosphatase (Bos taurus)
- TEST NAME: Chemiluminescent signal and signal:background with enhancer polymers (Example XVII)
- Type: biochemical
- ASSAY SETUP: polymer NONE; 20 min; enzyme 2.83×10^-13 M
- Protocol: Four sets of three tubes each, each tube in each set containing 450 μl of a 0.4 mM aqueous solution of one of the four 1,2-dioxetanes being compared in 0.1M diethanolamine containing 1 mM magnesium chloride, 0.02% sodium azide and 0.1% of the enhancer polymer, pH 10.0 (substrate buffer) were prepared and the background signal from each tube measured using a Berthold LB 952T luminometer (Berthold Instruments; Wildbad, Federal Republic of Germany). […]
ENDPOINT NAME: SIGNAL

Looking up COC1(c2cccc(OP(=O)(O)O)c2)OOC12C1CC3CC2CC(O)(C3)C1 (single isomer, unassigned) [B-OH-AMPPD] , I found its SIGNAL recorded as 3767.9

Value of measured SIGNAL for the entry COC1(c2cccc(OP(=O)(O)O)c2)OOC12C1CC3CC2CC(O)(C3)C1 (single isomer, unassigned) [A-OH-AMPPD] : 3160.8

# SIGNAL of COC1(c2cccc(OP(=O)(O)O)c2)OOC12C1CC3CC(C1)CC2C3 (stereo not shown) [AMPPD, reference compound] = 5944.8

Memo: COC1(c2cccc(OP(=O)(O)O)c2)OOC12C1CC3CC2CC(Cl)(C3)C1 (stereo not shown) [Cl-AMPPD] , reported SIGNAL: 4460.9

---

- MEASURED ON: alkaline phosphatase (Bos taurus, UniProt P19111)
- Sequence (P19111 20-506 limits assumed): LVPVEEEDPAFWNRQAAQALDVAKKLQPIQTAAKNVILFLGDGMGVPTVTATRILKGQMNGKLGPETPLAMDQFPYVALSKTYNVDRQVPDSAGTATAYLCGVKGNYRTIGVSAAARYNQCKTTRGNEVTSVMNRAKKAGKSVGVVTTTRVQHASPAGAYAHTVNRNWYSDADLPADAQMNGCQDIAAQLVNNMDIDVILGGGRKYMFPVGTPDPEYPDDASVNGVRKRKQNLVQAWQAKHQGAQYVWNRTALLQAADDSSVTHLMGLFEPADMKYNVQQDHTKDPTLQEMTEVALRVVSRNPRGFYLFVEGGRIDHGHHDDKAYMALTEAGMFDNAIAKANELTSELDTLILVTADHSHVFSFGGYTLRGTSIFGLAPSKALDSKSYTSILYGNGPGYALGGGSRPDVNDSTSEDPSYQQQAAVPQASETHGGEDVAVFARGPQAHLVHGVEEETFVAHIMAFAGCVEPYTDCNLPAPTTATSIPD
- TEST NAME: Chemiluminescent signal and signal:background with enhancer polymers (Example XVII)
- Assay type: biochemical
- ASSAY SETUP: polymer MPB; time 0 (background, before enzyme)
ENDPOINT NAME: SIGNAL
Just the number, please, no unit after it.

// SIGNAL value for COC1(c2cccc(OP(=O)(O)O)c2)OOC12C1CC3CC2CC(O)(C3)C1 (single isomer, unassigned) [A-OH-AMPPD] : 93.6

The recorded SIGNAL for COC1(c2cccc(OP(=O)(O)O)c2)OOC12C1CC3CC2CC(O)(C3)C1 (single isomer, unassigned) [B-OH-AMPPD] is 140.3

The molecule identified as COC1(c2cccc(OP(=O)(O)O)c2)OOC12C1CC3CC(C1)CC2C3 (stereo not shown) [AMPPD, reference compound] registered its SIGNAL at 211.8

Quick note, SIGNAL for COC1(c2cccc(OP(=O)(O)O)c2)OOC12C1CC3CC2CC(Cl)(C3)C1 (stereo not shown) landed at 86.0
